This collection of values is drawn from ChEMBL document CHEMBL1130527.

Assay system Adenosine receptor A2a (Rattus norvegicus); read-out recorded as pKi.
Just so you know, pKi here is -log10 of the concentration in molar units; reply with that number alone.

Look up pKi: CCn1c(=O)c2c(nc(/C=C/c3ccc(OC)c(C)c3OC)n2C)n(CC)c1=O 9.17

Can you handle CCn1c(=O)c2c(nc(/C=C/c3ccc(OC)c(C)c3C)n2C)n(CC)c1=O next? 9.17

CCn1c(=O)c2c(nc(/C=C/c3ccc(OC)c(OC)c3OC)n2C)n(CC)c1=O , same question. 8.66

Now this one: CCCn1c(=O)c2c(nc(/C=C/c3ccccc3)n2C)n(CCC)c1=O 8.31

# repeat for CCCn1c(=O)c2c(nc(/C=C/c3ccc(OC)cc3)n2C)n(CCC)c1=O 8.35

Another compound to look at: CCCn1c(=O)c2c(nc(/C=C/c3ccc(Cl)cc3)n2C)n(CCC)c1=O 7.46

Now the compound CCCn1c(=O)c2c(nc(/C=C/c3cc(OC)c(OC)c(OC)c3)n2C)n(CCC)c1=O 8.77
